System: SKBR3 cells
Experiment: SKBR3 Cell Viability Assay
Format: cell-based
Settings: 72 hours, CellTiter Glo, read-out: MCL-1 CV SKBR3 EC50
metric: EC50 (nM)
Respond numerically; units are nM and should not be typed.

1. CO[C@H]1/C=C/CCC[S@@](=O)(NC(=O)C2CCC2)=NC(=O)c2ccc3c(c2)N(C[C@@H]2CC[C@H]21)C[C@@]1(CCCc2cc(Cl)ccc21)CO3 = 2590
2. COc1ccc(C(=O)N[S@@]2(=O)=NC(=O)c3ccc4c(c3)N(C[C@@H]3CC[C@H]3[C@@H](OC)/C=C/C[C@H](C)C2)C[C@@]2(CCCc3cc(Cl)ccc32)CO4)cc1 = 81
3. COC1CN(C(=O)N[S@@]2(=O)=NC(=O)c3ccc4c(c3)N(C[C@@H]3CC[C@H]3[C@@H](O)/C=C/C[C@H](C)C2)C[C@@]2(CCCc3cc(Cl)ccc32)CO4)C1 = 53.8
4. CO[C@H]1/C=C\C[C@H](C)[C@@H](C)[S@@](=O)(NC(=O)COC2CCOCC2)=NC(=O)c2ccc3c(c2)N(C[C@@H]2CC[C@H]21)C[C@@]1(CCCc2cc(Cl)ccc21)CO3 = 332
5. CO[C@H]1/C=C/C[C@H](C)C[S@@](=O)(NC(=O)c2cn(C)nc2OCCN2CCOCC2)=NC(=O)c2ccc3c(c2)N(C[C@@H]2CC[C@H]21)C[C@@]1(CCCc2cc(Cl)ccc21)CO3 = 19.9
6. CO[C@H]1/C=C/CCC[S@@](=O)(NC(=O)CC2CC2)=NC(=O)c2ccc3c(c2)N(C[C@@H]2CC[C@H]21)C[C@@]1(CCCc2cc(Cl)ccc21)CO3 = 1300
7. CO[C@H]1/C=C/C[C@H](C)C[S@@](=O)(NC(=O)N2CC(OC(=O)N(C)C)C2)=NC(=O)c2ccc3c(c2)N(C[C@@H]2CC[C@H]21)C[C@@]1(CCCc2cc(Cl)ccc21)CO3 = 45.1

Next item in the queue.
Query: Field request: EC50 | item: CO[C@H]1/C=C/C[C@H](C)C[S@@](=O)(NC(=O)c2cc3n(c2)CCc2c-3cnn2C)=NC(=O)c2ccc3c(c2)N(C[C@@H]2CC[C@H]21)C[C@@]1(CCCc2cc(Cl)ccc21)CO3
Reply: 45

Measured values drawn from patent US10988451B2 for this set.
